For each of the compounds below, state its pIC50.
study.system: KRAS G12S (Homo sapiens (Human), UniProt P01116+P62937, G12S)
Sequence (P01116-2 other isoform, or with tags, fused parts or gaps G12S): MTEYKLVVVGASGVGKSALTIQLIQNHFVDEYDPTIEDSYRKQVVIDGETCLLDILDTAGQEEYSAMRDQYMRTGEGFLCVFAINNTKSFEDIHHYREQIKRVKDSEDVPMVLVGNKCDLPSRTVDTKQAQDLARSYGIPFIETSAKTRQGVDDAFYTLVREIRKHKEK
Sequence (P62937 whole entry): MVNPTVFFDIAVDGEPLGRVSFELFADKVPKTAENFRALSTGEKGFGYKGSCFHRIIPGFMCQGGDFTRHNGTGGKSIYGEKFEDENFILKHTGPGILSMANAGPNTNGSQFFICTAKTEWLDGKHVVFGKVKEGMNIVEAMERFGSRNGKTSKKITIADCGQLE
protocol.description: Ras-Raf (BRAF RBD) disruption / FRET / MOA assay, KRAS G12S
Format: biochemical
test.parameters: Ras-Raf disruption/FRET/MOA assay; class symbols; read-out: KRAS G12S FRET data IC50
pIC50: −log10 of the molar value.

CCn1c(-c2cccnc2[C@H](C)OC)c2c3cc(ccc31)-c1cc(O)cc(c1)C[C@H](NC(=O)[C@H](C(C)C)N1CCC3(CN(C(=O)/C=C/CN(C)C)C3)C1=O)C(=O)N1CCC[C@H](N1)C(=O)OCC(C)(C)C2 (atropisomer, axis not shown); 7.00 to 8.00

Pending compound:
# pIC50 of "C=CC(=O)N1CC[C@H](C(=O)N(C)[C@H](C(=O)N[C@H]2Cc3cc(O)cc(c3)-c3ccc4c(c3)c(c(-c3c(CCOC)cccc3OC)n4CC)CC(C)(C)COC(=O)[C@@H]3CCCN(N3)C2=O)C(C)C)C1" = < 5.00

----------
study.system: KRAS G12S (Homo sapiens (Human), UniProt P01116+P62937, G12S)
protocol.description: Ras-Raf (BRAF RBD) disruption / FRET / MOA assay, KRAS G12S
Assay type: biochemical
test.parameters: Ras-Raf disruption/FRET/MOA assay; class symbols; read-out: KRAS G12S FRET data IC50
pIC50: −log10 of the molar value.
For each of the compounds below, state its pIC50.

C=CC(=O)N(C)CC1CN(C(=O)N(C)[C@H](C(=O)N[C@H]2Cc3nc(cs3)-c3ccc4c(c3)c(c(-c3cccnc3[C@H](C)OC)n4CC)CC(C)(C)COC(=O)[C@@H]3CCCN(N3)C2=O)C(C)C)C1 (atropisomer, axis not shown); 6.00 to 7.00

Pending compound:
# pIC50 of CCn1c(-c2cccnc2[C@H](C)OC)c2c3cc(ccc31)-c1cccc(c1)C[C@H](NC(=O)[C@H](C(C)C)N(C)C(=O)[C@H]1CCN(C(=O)C#CC(C)(C)N3CCC(F)(F)C3)C1)C(=O)N1CCC[C@H](N1)C(=O)OCC(C)(C)C2 (atropisomer, axis not shown) = 5.00 to 6.00

----------
study.system: K-Ras G13C (Homo sapiens (Human), UniProt P01116+P62937, G13C)
Sequence (P01116-2 other isoform, or with tags, fused parts or gaps G13C): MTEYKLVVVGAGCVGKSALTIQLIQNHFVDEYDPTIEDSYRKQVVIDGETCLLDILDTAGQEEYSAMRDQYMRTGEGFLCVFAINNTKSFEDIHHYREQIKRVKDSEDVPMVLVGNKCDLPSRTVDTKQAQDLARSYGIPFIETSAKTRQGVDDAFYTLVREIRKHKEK
Sequence (P62937 whole entry): as the sequence (P62937 whole entry) above
protocol.description: Ras-Raf (BRAF RBD) disruption / FRET / MOA assay, KRAS G13C
Type: biochemical
test.parameters: KRAS G13C; Ras-Raf disruption/FRET/MOA assay; read-out: IC50* KRAS G13C FRET data
pIC50: −log10 of the molar value.
endpoint: pIC50

C=CC(=O)N1CC[C@](C#N)(C(=O)N(C)[C@H](C(=O)N[C@H]2Cc3cccc(c3)-c3ccc4c(c3)c(c(-c3cccnc3[C@H](C)OC)n4CC)CC(C)(C)COC(=O)[C@@H]3CCCN(N3)C2=O)C(C)C)C1 (atropisomer, axis not shown); 6.00 to 7.00
C=CC(=O)N1CC[C@]2(C1)OCN([C@H](C(=O)N[C@H]1Cc3cccc(n3)-c3ccc4c(c3)c(c(-c3cccnc3[C@H](C)OC)n4CC)CC(C)(C)COC(=O)[C@@H]3CCCN(N3)C1=O)C(C)C)C2=O (atropisomer, axis not shown); 6.00 to 7.00
CO[C@@H](C)c1ncccc1-c1c2c3cc(ccc3n1CC(F)(F)F)-c1cccc(c1)C[C@H](NC(=O)[C@@H](COC1CN(C(=O)C#CC(C)(C)N(C)C)C1)C(C)C)C(=O)N1CCC[C@H](N1)C(=O)OCC(C)(C)C2 (atropisomer, axis not shown); 5.00 to 6.00

# batch: return pIC50 for each of the 8 compounds below
1. CCn1c(-c2cccnc2[C@H](C)OC)c2c3cc(ccc31)-c1cccc(c1)C[C@H](NC(=O)[C@@H](COC1CN(C(=O)C#C[C@@H]3OCCCN3C)C1)C(C)C)C(=O)N1CCC[C@H](N1)C(=O)OCC(C)(C)C2 (atropisomer, axis not shown)
2. CCn1c(-c2cccnc2COC)c2c3cc(ccc31)-c1cc(O)cc(c1)C[C@H](NC(=O)[C@H](C(C)C)N(C)C(=O)[C@H]1CCC(C(=O)/C=C\CN(C)C)C1)C(=O)N1CCC[C@H](N1)C(=O)OCC(C)(C)C2 (stereo partly drawn) [Example A161]
3. C=CC(=O)N1CCC[C@H]2CN(C(=O)N(C)[C@H](C(=O)N[C@H]3Cc4nc(cs4)-c4ccc5c(c4)c(c(-c4cccnc4[C@H](C)OC)n5CC)CC(C)(C)COC(=O)[C@@H]4CCCN(N4)C3=O)C(C)C)C[C@H]21 (atropisomer, axis not shown)
4. CO[C@@H](C)c1ncccc1-c1c2c3cc(ccc3n1CC(F)(F)F)-c1nc(co1)C[C@H](NC(=O)[C@@H](COC1CN(C(=O)C#CC(C)(C)N(C)C)C1)C(C)C)C(=O)N1CCC[C@H](N1)C(=O)OCC(C)(C)C2 (atropisomer, axis not shown)
5. C=CC(=O)N1CC2(CCN2C(=O)N(C)[C@H](C(=O)N[C@H]2Cc3nc(n(C)n3)-c3ccc4c(c3)c(c(-c3cccnc3[C@H](C)OC)n4CC)CC(C)(C)COC(=O)[C@@H]3CCCN(N3)C2=O)C(C)C)C1 (atropisomer, axis not shown)
6. C=CC(=O)N1CC[C@H](C(=O)N(C)[C@H](C(=O)N[C@H]2Cc3cc(O)cc(c3)-c3ccc4c(c3)c(c(-c3c(C)cccc3C)n4CC)CC(C)(C)COC(=O)[C@@H]3CCCN(N3)C2=O)C(C)C)C1
7. C=CC(=O)N(C)CC1CN(C(=O)N(C)[C@H](C(=O)N[C@H]2Cc3nc(cs3)-c3ccc4c(c3)c(c(-c3cccnc3[C@H](C)OC)n4CC)CC(C)(C)COC(=O)[C@@H]3CCCN(N3)C2=O)C(C)C)C1 (atropisomer, axis not shown)
8. C=CC(=O)N1CC(F)(C(=O)N(C)[C@H](C(=O)N[C@H]2Cc3cccc(c3)-c3ccc4c(c3)c(c(-c3cccnc3[C@H](C)OC)n4CC)CC(C)(C)COC(=O)[C@@H]3CCCN(N3)C2=O)C(C)C)C1 (atropisomer, axis not shown)

## Result
1: 5.00 to 6.00; 2: 5.00 to 6.00; 3: 6.00 to 7.00; 4: 5.00 to 6.00; 5: 6.00 to 7.00; 6: < 5.00; 7: 6.00 to 7.00; 8: 7.00 to 8.00

# batch: return pIC50 for each of the 4 compounds below
1. C=CC(=O)C1CC[C@H](C(=O)N(C)[C@H](C(=O)N[C@H]2Cc3cc(O)cc(c3)-c3ccc4c(c3)c(c(-c3cnn(C)c3[C@H](C)OC)n4CC)CC(C)(C)COC(=O)[C@@H]3CCCN(N3)C2=O)C(C)C)C1 (stereo partly drawn)
2. CCn1c(-c2cccnc2[C@H](C)OC)c2c3cc(ccc31)C1CCCN(C1)C[C@H](NC(=O)[C@@H](COC1CN(C(=O)C#CC(C)(C)N(C)C)C1)C(C)C)C(=O)N1CCC[C@H](N1)C(=O)OCC(C)(C)C2
3. C=CC(=O)N1CC[C@H](C(=O)N(C)[C@H](C(=O)N[C@H]2Cc3cc(O)cc(c3)-c3ccc4c(c3)c(c(-c3cnn5c3[C@@H](OC)CCC5)n4CC)CC(C)(C)COC(=O)[C@@H]3CCCN(N3)C2=O)C(C)C)C1
4. C=CC(=O)N1CCN(C(=O)N(C)[C@H](C(=O)N[C@H]2Cc3nc(cs3)-c3ccc4c(c3)c(c(-c3cccnc3[C@H](C)OC)n4CC)CC(C)(C)COC(=O)[C@@H]3CCCN(N3)C2=O)C(C)C)[C@H]2C[C@H]21 (atropisomer, axis not shown)

## Result
6.00 to 7.00
< 5.00
7.00 to 8.00
7.00 to 8.00

----------
study.system: NRAS G12C (Homo sapiens (Human), UniProt P01111+P62937, G12C)
Sequence (P01111 whole entry G12C): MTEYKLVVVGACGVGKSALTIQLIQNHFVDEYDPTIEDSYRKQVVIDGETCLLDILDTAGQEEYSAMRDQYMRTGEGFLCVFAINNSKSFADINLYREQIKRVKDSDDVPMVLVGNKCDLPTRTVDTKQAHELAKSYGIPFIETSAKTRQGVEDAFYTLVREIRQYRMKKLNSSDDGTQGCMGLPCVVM
Sequence (P62937 whole entry): as the sequence (P62937 whole entry) above
protocol.description: Ras-Raf (BRAF RBD) disruption / FRET / MOA assay, NRAS G12C
Format: biochemical
test.parameters: read-out: IC50* NRAS G12C FRET data
endpoint: IC50

Example cases with answers are listed next.
C=CC(=O)N1CC[C@H](C(=O)N(C)[C@H](C(=O)N[C@H]2Cc3cccc(c3)-c3ccc4c(c3)c(c(-c3cnccc3[C@H](C)OC)n4CC)CC(C)(C)COC(=O)[C@@H]3CCCN(N3)C2=O)C(C)C)C1; > 10 µM
C=CC(=O)N1CC[C@H](C(=O)N(C)[C@H](C(=O)N[C@H]2Cc3cc(O)cc(c3)-c3ccc4c(c3)c(c(-c3cccc(=O)n3C(C)C)n4CC)CC(C)(C)COC(=O)[C@@H]3CCCN(N3)C2=O)C(C)C)C1; 0.1 to 1 µM
CCn1c(-c2cccnc2[C@H](C)OC)c2c3cc(ccc31)-c1cccc(c1)C[C@H](NC(=O)[C@H](C(C)C)N1CC[C@]3(CCN(C(=O)C#C[C@@H]4COCCN4C)C3)C1=O)C(=O)N1CCC[C@H](N1)C(=O)OCC(C)(C)C2 (atropisomer, axis not shown); 0.01 to 0.1 µM

# IC50 of C=CC(=O)N1C[C@H](C(=O)N(C)[C@H](C(=O)N[C@H]2Cc3cccc(c3)-c3ccc4c(c3)c(c(-c3cccnc3[C@H](C)OC)n4CC)CC(C)(C)COC(=O)[C@@H]3CCCN(N3)C2=O)C(C)C)[C@H](C(F)(F)F)C1 (atropisomer, axis not shown) = 0.01 to 0.1 µM

Ref: patent US11566007B2
